# methodDescription: NCI Yeast Anticancer Drug Screen. Data for the rad50 strain (AID 155);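 also: 0% = growth of vehicle-only cultures of the same strain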
# measurementSetup: S. cerevisiae rad50 strain growth inhibition; at 50.0 µM (retest, dose inferred, filed as 5.0); stronger effect = higher value
This is part of a sample that, as a whole, favours compounds with a hit. Of some 79,000 tested, about 15% had one in any assay. Activity calls are given as the source filed them. Rule as the data show it: active = growth inhibition above about 70%; inactive = the rest.

[
  {
    "compound": "COc1cc(NCCCCNCC(C)(C)C)c2ncccc2c1",
    "growth inhibition": "25% (inactive)"
  },
  {
    "compound": "N#[N+]c1c([O-])c2ccccc2c2ccccc12",
    "growth inhibition": "35% (inactive)"
  },
  {
    "compound": "Cc1nc2sc3c(c2c(=O)o1)CCCC3",
    "growth inhibition": "10% (inactive)"
  },
  {
    "compound": "O=S(=O)(NC1CCCC(c2ccccc2)C1)c1ccccc1 (configuration not stated)",
    "growth inhibition": "71% (active)"
  },
  {
    "compound": "CN(C)CCNc1ccc2ncn3c4ccc(O)cc4c(=O)c1c23",
    "growth inhibition": "86% (active)"
  },
  {
    "compound": "Cc1cc(O)c(C(C)C)cc1SC#N",
    "growth inhibition": "98% (active)"
  },
  {
    "compound": "C/C(=N/NC(=S)Nc1ccccc1C)c1ccccn1",
    "growth inhibition": "12% (inactive)"
  },
  {
    "compound": "O/N=c1/ccn(O)c2ccccc12",
    "growth inhibition": "95% (active)"
  },
  {
    "compound": "COc1cc2c(cc1OC)[C@@H](Nc1ccc(C#N)cc1)C1COC(=O)[C@@H]1C2c1cc(OC)c(O)c(OC)c1 (some centres not stated)",
    "growth inhibition": "97% (active)"
  },
  {
    "compound": "CCCCCCCN(CCCCCCC)CC(=O)c1ccc2cc(Cl)c3ccccc3c2c1",
    "growth inhibition": "93% (active)"
  },
  {
    "compound": "CN(C)CCNCCCNc1c2ccccc2nc2cccc([N+](=O)[O-])c12",
    "growth inhibition": "93% (active)"
  },
  {
    "compound": "O=C(O)C(=Cc1ccc(-c2ccccc2)cc1)C(=O)O",
    "growth inhibition": "23% (inactive)"
  },
  {
    "compound": "OC1(c2ccccc2)C2CC=CC2C1(c1ccccc1)c1ccccc1 (configuration not stated)",
    "growth inhibition": "53% (inactive)"
  },
  {
    "compound": "O=C1SS(=O)c2ccccc21 (configuration not stated)",
    "growth inhibition": "89% (active)"
  },
  {
    "compound": "c1ccc(-c2cc(C3CO3)c3ccccc3n2)cc1 (configuration not stated)",
    "growth inhibition": "15% (inactive)"
  },
  {
    "compound": "Oc1c2c(c(O)c3ccccc13)C1(N=N2)c2ccccc2Oc2ccccc21",
    "growth inhibition": "98% (active)"
  },
  {
    "compound": "COC(=O)c1ccccc1N=NNc1cccc(SC)c1",
    "growth inhibition": "41% (inactive)"
  }
]
